- target.or.test.system: Ba/F3-EGFR-L858R cells (Homo sapiens, UniProt P00533, L858R, cells depend on it)
- Sequence (P00533 whole entry L858R): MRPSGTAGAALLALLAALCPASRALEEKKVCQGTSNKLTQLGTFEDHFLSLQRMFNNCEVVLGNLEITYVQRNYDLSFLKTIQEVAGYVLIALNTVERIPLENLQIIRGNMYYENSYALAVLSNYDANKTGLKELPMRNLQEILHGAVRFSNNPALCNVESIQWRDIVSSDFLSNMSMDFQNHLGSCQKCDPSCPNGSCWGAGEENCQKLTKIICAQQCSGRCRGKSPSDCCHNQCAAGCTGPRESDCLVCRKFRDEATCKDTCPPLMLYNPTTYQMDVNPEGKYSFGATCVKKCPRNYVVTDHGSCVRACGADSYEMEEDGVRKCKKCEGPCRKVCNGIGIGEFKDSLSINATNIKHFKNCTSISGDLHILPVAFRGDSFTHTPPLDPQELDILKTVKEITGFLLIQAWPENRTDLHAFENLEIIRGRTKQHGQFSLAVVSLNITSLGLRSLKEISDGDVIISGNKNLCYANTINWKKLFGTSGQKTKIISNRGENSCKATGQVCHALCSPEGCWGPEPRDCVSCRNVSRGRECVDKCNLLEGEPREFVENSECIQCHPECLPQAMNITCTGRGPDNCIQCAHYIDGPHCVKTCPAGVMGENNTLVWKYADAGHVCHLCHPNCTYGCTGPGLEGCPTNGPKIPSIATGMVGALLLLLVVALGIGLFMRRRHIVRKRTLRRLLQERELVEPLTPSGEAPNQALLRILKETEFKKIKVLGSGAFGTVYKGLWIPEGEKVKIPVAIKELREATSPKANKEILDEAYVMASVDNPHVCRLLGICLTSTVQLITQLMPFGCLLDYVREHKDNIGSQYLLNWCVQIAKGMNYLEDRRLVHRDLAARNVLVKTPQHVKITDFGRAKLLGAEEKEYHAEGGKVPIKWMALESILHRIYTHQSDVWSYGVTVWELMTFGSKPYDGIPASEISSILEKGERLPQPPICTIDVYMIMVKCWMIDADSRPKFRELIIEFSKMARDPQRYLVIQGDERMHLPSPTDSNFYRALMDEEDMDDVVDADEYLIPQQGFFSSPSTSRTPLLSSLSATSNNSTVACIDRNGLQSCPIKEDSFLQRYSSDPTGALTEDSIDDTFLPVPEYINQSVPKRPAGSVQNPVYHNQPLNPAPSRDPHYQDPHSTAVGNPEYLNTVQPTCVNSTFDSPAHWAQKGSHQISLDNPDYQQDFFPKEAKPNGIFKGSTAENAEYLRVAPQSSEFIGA
- measurement.notes: Ba/F3 cell survival assay, EGFR L858R
- Assay type: cell-based
- applied.conditions: without IL-3, without EGF, 48 h; read-out: BA/F3 (EGFR L858R) IC50
attribute.measured: GI50 (nM)
Entry rule: numbers only, all in nM.

// worked examples, GI50 included
Q: // GI50 lookup, key: Cc1c(F)cccc1Nc1c(-c2ccncc2OCC2COCCO2)[nH]c2c1C(=O)NCC2 (single isomer, unassigned)
Result: 2.36

Q: What do you get for COc1c(Cl)cccc1Nc1c(-c2ccncc2OC[C@@H]2COCCN2C)[nH]c2c1C(=O)NCC2 ?
Result: 0.644

Q: What do you get for COc1c(Cl)cccc1Nc1c(-c2ccncc2OCC2COC(C)(C)CO2)[nH]c2c1C(=O)NCC2 (single isomer, unassigned) ?
Result: 1.06

Please turn your attention to the following entry.
Q: // GI50 lookup, key: Cc1c(Cl)cccc1Nc1c(-c2ccncc2OC[C@@H]2CN(C)CCO2)[nH]c2c1C(=O)NCC2
Result: 1.51

Value source: patent US12679836B2
